System: adult spider mites (Tetranychus cinnabarinus)
Experiment: Test against adult spider mite, spray on bean leaves, mortality after 72 h
Format: in vivo
Conditions: 0.63 ppm, spray
QUANTITY NAME: Acaricidal activity against adult spider mites (mortality, %)
Field: numeric (%). Do not append units.

Previously resolved entries follow.
Request: Query Acaricidal activity against adult spider mites (mortality, %) on adult spider mites (Tetranychus cinnabarinus) for CCn1nc(C)c(Cl)c1C(OC(=O)C(C)(C)C)=C(C#N)c1ccc(C(C)(C)C)cc1 [Compound 90.1]
Result: 55

Request: # get_value(readout= Acaricidal activity against adult spider mites (mortality, %), system= adult spider mites (Tetranychus cinnabarinus)) for CCn1nc(C)c(Cl)c1C(OC(=O)C(C)(C)C)=C(C#N)c1ccc(C(C)(C)C)cc1 [Compound 90.2]
Result: 28

Request: Report Acaricidal activity against adult spider mites (mortality, %) for CCn1nc(C)cc1C(OC(=O)C(C)(C)C)=C(C#N)c1ccc(C(C)(C)C)cc1 [Compound 5.2] tested on adult spider mites (Tetranychus cinnabarinus).
Result: 56

Request: Query the reported Acaricidal activity against adult spider mites (mortality, %) for adult spider mites (Tetranychus cinnabarinus); item: CCn1nc(C)c(C)c1C(OC(=O)C(C)(C)C)=C(C#N)c1ccc(C(C)(C)C)cc1 [Compound 42.1]
Result: 20

Now, please, on to the next compound.
Request: Write down the reported Acaricidal activity against adult spider mites (mortality, %) of CCn1nc(C)c(C)c1C(OC(=O)C(C)(C)C)=C(C#N)c1ccc(C(C)(C)C)cc1 [Compound 42.2] , test system: adult spider mites (Tetranychus cinnabarinus).
Result: 51
